Cited source: patent US6664083B2

- Test system: N-acylamino acid racemase
- protocol: Influence of metal ions on N-acylamino acid racemase activity
- Type: biochemical, Sebekia benihana
- condition info: metal ion 1 mM instead of cobalt chloride, 5 minutes at 30° C.; activity in the presence of Co taken as 100
Note to self: values exactly at 20% are y. So Relative activity (%) at or above 20% is y, below is n.

# compound, qualitative label
measured = [
    ("[Cl-].[K+] [KCl]", "n"),
    ("O.O.O.O.O.O.[Cl-].[Cl-].[Mg+2] [MgCl2.6H2O]", "y"),
    ("O.O.[Cl][Sn][Cl] [SnCl2.2H2O]", "n"),
    ("[Cl][Fe][Cl] [FeCl2.nH2O]", "y"),
    ("O.O.O.O.O.O.[Cl][Ni][Cl] [NiCl2.6H2O]", "y"),
    ("O.O.[Ca+2].[Cl-].[Cl-] [CaCl2.2H2O]", "n"),
    ("O.O.O.O.O.O.[Cl-].[Cl-].[Cl-].[Fe+3] [FeCl3.6H2O]", "n"),
    ("O.O.[Ba+2].[Cl-].[Cl-] [BaCl2.2H2O]", "n"),
    ("[Cl-].[Na+] [NaCl]", "n"),
    ("O.O.O.O.[Cl][Mn][Cl] [MnCl2.4H2O]", "y"),
    ("O.O.O.O.O.O.[Cl-].[Cl-].[Co+2] [CoCl2.6H2O]", "y"),
    ("O.O.[Cl][Cu][Cl] [CuCl2.2H2O]", "n"),
]

----------
- System: N-acylamino acid racemase
- protocol: Influence of inhibitors on N-acylamino acid racemase activity
- Format: biochemical, Sebekia benihana
- condition info: inhibitor 1 mM, 10 minutes at 30° C.; activity in the absence of inhibitors taken as 100
Relative activity (%) values for the compounds below.

# compound, experimental system, unit string, Relative activity (%)
data = [
    ("O=S(=O)(F)Cc1ccccc1 [phenylmethanesulfonyl fluoride]", "N-acylamino acid racemase", "%", 84),
    ("c1ccc(-c2ccccn2)nc1 [2,2′-Bipyridyl]", "N-acylamino acid racemase", "%", 55),
    ("CCN1C(=O)C=CC1=O [N-ethylmaleimide]", "N-acylamino acid racemase", "%", 96),
    ("NN.O=S(=O)(O)O [Hydrazinium Sulfate]", "N-acylamino acid racemase", "%", 69),
    ("O=C(NNc1ccccc1)NNc1ccccc1 [1,5-Diphenylcarbonohydrazide]", "N-acylamino acid racemase", "%", 68),
    ("O[C@H](CS)[C@H](O)CS (racemic) [dithiothreitol]", "N-acylamino acid racemase", "%", 84),
    ("[I-].[K+] [KI]", "N-acylamino acid racemase", "%", 97),
    ("[F-].[Na+] [NaF]", "N-acylamino acid racemase", "%", 94),
    ("NO [Hydroxylammonium chloride]", "N-acylamino acid racemase", "%", 88),
    ("O=C(O)CN(CCN(CC(=O)O)CC(=O)O)CC(=O)O [EDTA]", "N-acylamino acid racemase", "%", 10),
    ("O=C(O)c1cc[c]([Hg][Cl])cc1 [p-chloromercuribenzoic acid]", "N-acylamino acid racemase", "%", 11),
]
